# Tested on: HEK-293T
# procedure.details: Multiplex assay against HEK293T
# Type: toxicity, cell-based
# recorded.conditions: human, 12 h, 10 µM, compound concentration 10 uM, replicate 2
readout: Population Apoptotic (%)
Express the result in % but write the number alone.

Summary for this molecule, CCc1nn2c(C)cc(C)nc2c1Cc1ccc(-c2nnc(C3CCNCC3)o2)cc1 : Population Apoptotic (%) is 56

Summary for this molecule, Cn1cc(C(=O)OCC2CCN(CCNS(C)(=O)=O)CC2)c2ccccc21 : Population Apoptotic (%) is 43

The molecule listed as COc1ccc2[nH]c(I)c(CCNC(C)=O)c2c1 shows Population Apoptotic (%) equal to 46

Looking up OCCCNc1cc(-c2ccnc(Nc3cccc(Cl)c3)n2)ccn1 , I see its Population Apoptotic (%) listed as 75

get_value(item= CC(C)(O)C(=O)N1CCN(c2ccc(C(F)(F)F)c(C3=C(c4c[nH]c5ccccc45)C(=O)NC3=O)c2)CC1 , readout=Population Apoptotic (%)) returns 72

Per the record, CN1C[C@H](C(=O)N[C@]2(C)O[C@@]3(O)[C@@H]4CCCN4C(=O)[C@H](Cc4ccccc4)N3C2=O)C[C@@H]2c3cccc4[nH]cc(c34)C[C@H]21.CS(=O)(=O)O [DIHYDROERGOTAMINE MESYLATE] has Population Apoptotic (%) of 53

Looking up O=C(O)CCC/C=C\CC1C(O)CC(O)C1/C=C/C(O)COc1cccc(Cl)c1 (configuration not stated) , I see its Population Apoptotic (%) listed as 51

Consider CN(C)C/C=C/C(=O)Nc1ccc(C(=O)N2CCCC(Nc3ncc(Cl)c(-c4c[nH]c5ccccc45)n3)C2)cc1 (configuration not stated) . Its measured Population Apoptotic (%) is 77

COc1cc(Nc2ncc3c(n2)-c2ccc(Cl)cc2C(c2c(F)cccc2OC)=NC3)ccc1C(=O)O yielded Population Apoptotic (%) of 88

Entry under test: CN1CCN2c3ccccc3Cc3ccccc3C2C1.Cl (configuration not stated) [MIANSERIN HYDROCHLORIDE] . Its Population Apoptotic (%) was 42

Cc1cc(-c2ccc3c(c2)CC[C@H]3N2CC3(CCN(C(=O)Cc4cn5cc(C)sc5n4)CC3)C2)ncn1 has a reported Population Apoptotic (%) of 54

Memo: COc1cc2nc(N3CCN(C(=O)COc4c(OC)cccc4C(C)C)CC3)nc(N)c2cc1OC.Cl.Cl , reported Population Apoptotic (%): 57

Field Population Apoptotic (%) (entry COCCn1c(C)c(C)s/c1=N\C(=O)C1C(C)(C)C1(C)C ) reads 53

The measured Population Apoptotic (%) associated with O=C(Nc1cc(-c2ccccc2)nn1-c1ccccc1F)c1ccc([N+](=O)[O-])cc1 reads 44

Recorded Population Apoptotic (%) (molecule COc1cc(OC2CCN(C(C)=O)CC2)ccc1C(=O)N1CCC(N2C(=O)OCc3ccccc32)CC1 ): 67

Cl.Cl.OCCOCCN1CCN(C(c2ccccc2)c2ccc(Cl)cc2)CC1 (configuration not stated) [HYDROXYZINE HYDROCHLORIDE] has a reported Population Apoptotic (%) of 68

Recorded Population Apoptotic (%) (molecule COC(c1ccccc1)(c1ccccc1)[C@H](Oc1nc(C)cc(C)n1)C(=O)O ): 56
